- ASSAY_EXPLANATION: in vivo
- TEST_CONTEXT: male, SD, rat, po, 30 mg/kg, Cmax (ng/ml)
MEASURE_NAME: Cmax (ng/mL)

Here is how some molecules turned out for Cmax.
Exam item: Fill blank: measured Cmax of the molecule Cc1n[nH]c2nc(-c3ccc(NS(=O)(=O)c4cc(Cl)ccc4F)cc3)nc(O[C@@H]3CCNC[C@@H]3F)c12 is ____.
Marked response: 16

Exam item: Fill blank: measured Cmax of the molecule Cc1n[nH]c2nc(-c3ccc(NS(=O)(=O)c4cc(F)ccc4F)cc3)nc(NCCN(C)C)c12 is ____.
Marked response: 131

Exam item: Fill blank: measured Cmax of the molecule Cc1n[nH]c2nc(-c3ccc(NS(=O)(=O)c4cc(Cl)ccc4F)c(F)c3)nc(OC3CCN(C)CC3)c12 is ____.
Marked response: 3400

I = Cc1n[nH]c2nc(-c3ccc(NS(=O)(=O)c4cc(F)ccc4F)c(Cl)c3)nc(NCCN(C)C)c12
II = Cc1n[nH]c2nc(-c3ccc(NS(=O)(=O)c4cc(Cl)ccc4F)c(Cl)c3)nc(OC3CCN(C)CC3)c12
Exam item: Which entry has a larger number for Cmax, I or II ? Field: selected label. Fill in the label of the entry you choose.
Marked response: II

* * *

- ASSAY_EXPLANATION: physchem
- TEST_CONTEXT: 25 °C, pH 5, fessif, kinetic from dmso stock
MEASURE_NAME: solubility at 2 h (µM)

Here is how some compounds turned out for solubility at 2 h.
Exam item: Fill blank: measured solubility at 2 h of the compound Cc1n[nH]c2nc(-c3ccc(NS(=O)(=O)c4cc(Cl)ccc4F)cc3)nc(OC3CN(C(C)C)C3)c12 is ____.
Marked response: 202

Exam item: Fill blank: measured solubility at 2 h of the compound [2H]C([2H])([2H])N1CC[C@@H](Oc2nc(-c3ccc(NS(=O)(=O)c4cc(Cl)ccc4F)cc3)nc3[nH]nc(C)c23)[C@@H](F)C1 is ____.
Marked response: 210

I = Cc1n[nH]c2nc(-c3ccc(NS(=O)(=O)c4ccccn4)cc3)nc(NCCN(C)C)c12
II = Cc1n[nH]c2nc(-c3ccc(NS(=O)(=O)c4cc(Cl)ccc4F)cc3)nc(NCc3ccncc3)c12
Exam item: Which entry has a larger number for solubility at 2 h, I or II ? Field: selected label. Fill in the label of the entry you choose.
Marked response: I
(I: 300 µM, II: 5.81 µM)

* * *

- ASSAY_EXPLANATION: physchem
- TEST_CONTEXT: 25 °C, pH 7.4, aqueous buffer, kinetic from dmso stock
MEASURE_NAME: solubility at 2 h (µM)

Exam item: Fill blank: measured solubility at 2 h of the compound Cc1n[nH]c2nc(-c3ccc(NS(=O)(=O)c4cccnc4)cc3)nc(NCCN(C)CCO)c12 is ____.
Marked response: 2.26

a = Cc1n[nH]c2nc(-c3ccc(NS(=O)(=O)c4cc(Cl)ccc4F)cc3)nc(O[C@H]3CCNC[C@H]3F)c12
b = C=CS(=O)(=O)Nc1ccc(-c2nc(OC3CCN(C(C)C)CC3)c3c(C)n[nH]c3n2)cc1
c = Cc1n[nH]c2nc(-c3cnc(NS(=O)(=O)c4cc(Cl)ccc4F)nc3)nc(OC3CCN(C(C)C)CC3)c12
Exam item: Endpoint returns the given compounds ordered by ascending solubility at 2 h. API: response body holds the labels in the requested order.
Marked response: a, c, b
